- system: T1, I-AniI K227M nickase (Aspergillus nidulans, UniProt P03880 P03880:235-488, F80K,L233K,K227M)
- T1 sequence: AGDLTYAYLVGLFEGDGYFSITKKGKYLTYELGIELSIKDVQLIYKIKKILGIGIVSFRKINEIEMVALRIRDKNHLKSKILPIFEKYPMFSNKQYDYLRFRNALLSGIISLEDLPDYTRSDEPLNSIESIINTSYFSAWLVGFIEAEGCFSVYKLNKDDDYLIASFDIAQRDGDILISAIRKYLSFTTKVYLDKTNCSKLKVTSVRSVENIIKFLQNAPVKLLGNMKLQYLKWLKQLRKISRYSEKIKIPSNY
- assay-name: ITC; +1.4 kcal/mol in binding free energy vs wild type
attribute-measured: pKd
Numbers only, as −log10 of the molar value.

Name the reported pKd value associated with the binder I-AniI Lib4 target site (dsDNA) DNA 1: TGAGGAGGTTACTCTGTTA DNA 2: TAACAGAGTAACCTCCTCA
7.15
